Every entry's value here was drawn from ChEMBL document CHEMBL4689842.

Recorded Population Tubulin-Different-Phenotype (%), one value per entry.
# Tested on: HEK-293T
# experiment_summary: Multiplex assay against HEK293T;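 on Population Tubulin-Different-Phenotype (%): share of the cells with healthy nuclei that show this phenotype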
# Type: toxicity, cell-based
# cond: human, 24 h, 1 µM, compound concentration 1 uM, replicate 2
measure: Population Tubulin-Different-Phenotype (%)

{"smiles_text": "Oc1cccc(-c2nc(N3CCOCC3)c3oc4ncccc4c3n2)c1", "target_desc": "HEK-293T", "reading_unit": "%", "observed_measurement": 64}
{"smiles_text": "Cc1c(Nc2ccc(S(=O)(=O)N3CCN(C)CC3)cc2F)nc2ccc(-c3cnn(C4CC4)c3)cn2c1=O", "target_desc": "HEK-293T", "reading_unit": "%", "observed_measurement": 14}
{"smiles_text": "CN(c1cc(C(F)(F)F)nc(OCCC(=O)O)n1)c1cccc2c1CCC2", "target_desc": "HEK-293T", "reading_unit": "%", "observed_measurement": 28}

----------
# Tested on: HEK-293T
# experiment_summary: Multiplex assay against HEK293T
# Assay type: toxicity, cell-based
# cond: human, 12 h, 1 µM, compound concentration 1 uM, replicate 2
Parameter Total Cell Count: see the listing below.
measure: Total Cell Count

{"smiles_text": "CC(C)[C@H](CO)Nc1nc(Nc2cccc(Cl)c2)c2ncn(C(C)C)c2n1", "target_desc": "HEK-293T", "observed_measurement": 201}
{"smiles_text": "CC(C)c1cc(Nc2nc(N3CCC[C@H](N)C3)ncc2C(N)=O)cc(C(C)C)n1", "target_desc": "HEK-293T", "observed_measurement": 140}
{"smiles_text": "Cc1c(Nc2ccc(S(=O)(=O)N3CCN(C)CC3)cc2F)nc2ccc(Nc3cnn(C4CC4)c3)cn2c1=O", "target_desc": "HEK-293T", "observed_measurement": 888}
{"smiles_text": "CCOC(=O)CCNc1cc(N2CCc3ccccc3CC2)nc(-c2ccccn2)n1", "target_desc": "HEK-293T", "observed_measurement": 1753}

----------
# Tested on: HEK-293T
# experiment_summary: Multiplex assay against HEK293T
# Assay type: toxicity, cell-based
# cond: human, 24 h, 1 µM, compound concentration 1 uM, replicate 1
Classification field: enter YES for Population Normal (%) values not below 90%, NO for values below it.

{"molecule": "CC(C)c1cc(Nc2nc(N3CCC[C@H](N)C3)ncc2C(N)=O)cc(C(C)C)n1", "class": "NO"}
{"molecule": "CN1C(=O)[C@@H](NC(=O)c2cc3ccccc3[nH]2)N=C(c2ccccc2)c2ccccc21 [DEVAZEPIDE]", "class": "NO"}
{"molecule": "CCOC(=O)CCNc1cc(N2CCc3ccccc3CC2)nc(-c2ccccn2)n1", "class": "YES"}
{"molecule": "CC(Cc1ccc(O)c(O)c1)C(C)Cc1ccc(O)c(O)c1 (stereo not given) [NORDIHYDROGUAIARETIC ACID]", "class": "NO"}
{"molecule": "C[C@@H](Oc1cc(-n2cnc3ccc(CN4CCN(C)CC4)cc32)sc1C(N)=O)c1ccccc1C(F)(F)F", "class": "NO"}
{"molecule": "CC(/C=C1\\SC(=S)N(CCCC(=O)Nc2ccc(C(=O)O)c(O)c2)C1=O)=C\\c1ccccc1", "class": "NO"}

----------
# Tested on: Fibroblast
# experiment_summary: Multiplex assay against human fibroblast
# Assay type: toxicity, cell-based
# cond: 12 h, 1 µM, compound concentration 1 uM, replicate 2
measure: Total Cell Count

{"molecule": "Cc1c(Nc2ccc(S(=O)(=O)N3CCN(C)CC3)cc2F)nc2ccc(-c3cnn(C4CC4)c3)cn2c1=O", "measure": "Total Cell Count", "observed_measurement": 73}
{"molecule": "CC(C)c1cc(Nc2nc(N3CCC[C@H](N)C3)ncc2C(N)=O)cc(C(C)C)n1", "measure": "Total Cell Count", "observed_measurement": 82}
{"molecule": "CN1C(=O)[C@@H](NC(=O)c2cc3ccccc3[nH]2)N=C(c2ccccc2)c2ccccc21 [DEVAZEPIDE]", "measure": "Total Cell Count", "observed_measurement": 68}
{"molecule": "Cl.NC[C@@H]1O[C@H](C23CC4CC(CC(C4)C2)C3)Cc2c1ccc(O)c2O", "measure": "Total Cell Count", "observed_measurement": 95}
{"molecule": "CCOc1ccn(-c2ccc(F)cc2)c(=O)c1C(=O)Nc1ccc(Oc2ccnc(N)c2Cl)c(F)c1", "measure": "Total Cell Count", "observed_measurement": 82}
{"molecule": "C=CC(=O)Nc1cc(-n2c(=O)ccc3cnc4ccc(-c5ccc(NS(C)(=O)=O)cc5)cc4c32)ccc1C", "measure": "Total Cell Count", "observed_measurement": 53}
{"molecule": "CC(C)[C@H](CO)Nc1nc(Nc2cccc(Cl)c2)c2ncn(C(C)C)c2n1", "measure": "Total Cell Count", "observed_measurement": 111}
{"molecule": "CC[C@H](Nc1ncnc2[nH]cnc12)c1nc2cccc(F)c2c(=O)n1-c1ccccc1", "measure": "Total Cell Count", "observed_measurement": 63}
{"molecule": "CC(C)C[C@H](NC(=O)[C@H](Cc1ccccc1)NC(=O)CNC(=O)CNC(=O)[C@@H](N)Cc1ccc(O)cc1)C(=O)O", "measure": "Total Cell Count", "observed_measurement": 70}
